// data source = ChEMBL document CHEMBL1201861

Tested on: NCI-H810;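 further: IC50 reflects inhibition of cancer cell line growth, read out with a cell viability assay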
Assay: cells
Type: functional, cell-based
Settings: Homo sapiens
Description: SANGER: Inhibition of human NCI-H810 cell growth in a cell viability assay.
IC50 for assorted compounds

Some solved cases for reference:
[[record]]
compound = "CC[C@@]1(O)C(=O)OCc2c1cc1n(c2=O)Cc2cc3ccccc3nc2-1"
target_under_test = "NCI-H810"
measurement_type = "IC50"
observed_measurement = "0.0503 µM"

[[record]]
compound = "Cn1cc(/C=C2\\C(=O)Nc3cccnc32)c2ccccc21"
target_under_test = "NCI-H810"
measurement_type = "IC50"
observed_measurement = "> 2 µM"

[[record]]
compound = "C[C@]12O[C@H](C[C@]1(O)CO)n1c3ccccc3c3c4c(c5c6ccccc6n2c5c31)CNC4=O"
target_under_test = "NCI-H810"
measurement_type = "IC50"
observed_measurement = "0.995 µM"

[[record]]
compound = "CC(O)(CS(=O)(=O)c1ccc(F)cc1)C(=O)Nc1ccc(C#N)c(C(F)(F)F)c1 (stereo unspecified) [BICALUTAMIDE]"
target_under_test = "NCI-H810"
measurement_type = "IC50"
observed_measurement = "> 1.02 µM"

[[record]]
compound = "NC(=O)c1ncn([C@@H]2O[C@H](COP(=O)(O)O)[C@@H](O)[C@H]2O)c1N"
target_under_test = "NCI-H810"
measurement_type = "IC50"
observed_measurement = "> 2000 µM"


# next compound below
Query: Specify IC50 for COc1cc(Nc2c(C#N)cnc3cc(OCCCN4CCN(C)CC4)c(OC)cc23)c(Cl)cc1Cl and stop.
Response: > 2 µM

---

Test system: LK-2;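 further: growth inhibition of LK-2 cells, read out with a viability assay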
Assay: cells
Format: functional, cell-based
Settings: Homo sapiens
Description: SANGER: Inhibition of human LK-2 cell growth in a cell viability assay.
measurement.type: pIC50
Note on pIC50: it is the negative log10 of concentration, concentration in mol/L.

[[record]]
chem_smiles = "Cn1c(=O)n(-c2ccc(C(C)(C)C#N)cc2)c2c3cc(-c4cnc5ccccc5c4)ccc3ncc21"
measurement_type = "pIC50"
observed_measurement = 7.11


Query: Specify pIC50 for CO[C@@]12[C@H](COC(N)=O)C3=C(C(=O)C(C)=C(N)C3=O)N1C[C@@H]1N[C@@H]12 and stop.
Response: 6.45

Query: Specify pIC50 for Fc1cc(-c2cc[nH]/c(=N/c3ccc(-n4cnc(N5CCOCC5)n4)cc3)n2)cc(N2CCOCC2)c1 and stop.
Response: 6.07

Query: Specify pIC50 for CC[C@]1(O)C[C@@H]2CN(CCc3c([nH]c4ccccc34)[C@@](C(=O)OC)(c3cc4c(cc3OC)N(C)[C@H]3[C@@](O)(C(=O)OC)[C@H](OC(C)=O)[C@]5(CC)C=CCN6CC[C@]43[C@@H]65)C2)C1 and stop.
Response: 8.12

---

System: HCC2157;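 further: growth inhibition of the cancer cell line, read out as cell viability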
Test: cells
Format: functional, cell-based
Conditions: Homo sapiens
Description: SANGER: Inhibition of human HCC2157 cell growth in a cell viability assay.
measurement.type: pIC50
Note on pIC50: it is the negative log10 of concentration, concentration in mol/L.

Some solved cases for reference:
[[record]]
chem_smiles = "CC(C)=CC[C@@H](O)C1=CC(=O)c2c(O)ccc(O)c2C1=O"
measurement_type = "pIC50"
observed_measurement = 6.47

[[record]]
chem_smiles = "CCNC(=O)c1noc(-c2cc(C(C)C)c(O)cc2O)c1-c1ccc(CN2CCOCC2)cc1"
measurement_type = "pIC50"
observed_measurement = 7.24


# next compound below
Query: Specify pIC50 for Cn1c(=O)n(-c2ccc(C(C)(C)C#N)cc2)c2c3cc(-c4cnc5ccccc5c4)ccc3ncc21 and stop.
Response: 6.89
